# MEASURED TARGET: T1, cynomolgus monkey CD8 alpha on primary cynomolgus CD8+ T cells (cynomolgus monkey, UniProt P01732 23-235 (human entry))
# T1 construct: also called Cyno CD8alpha; cyno CD8A
# T1 sequence (P01732 other isoform, or with tags, fused parts or gaps limits assumed): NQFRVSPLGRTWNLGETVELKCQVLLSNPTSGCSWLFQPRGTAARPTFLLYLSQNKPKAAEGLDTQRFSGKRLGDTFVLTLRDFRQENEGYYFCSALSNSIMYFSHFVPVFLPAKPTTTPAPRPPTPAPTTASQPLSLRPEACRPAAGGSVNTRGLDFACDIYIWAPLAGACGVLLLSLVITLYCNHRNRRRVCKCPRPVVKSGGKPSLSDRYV
# ASSAY NAME: flow cytometry, cyno CD8+ T cells
Could you label it Met if measured Cyno T-cell Binding 2 uM (MFI) is 30000 MFI or higher, and Not met otherwise?

{"BINDER": "P283GR7P1367_H8 (designed binder, FN3 domain) LPAPKNLVVSRVTEDSARLSWTAPDAAFDSFSINYWEEDPAGEAIVLTVPGSERSYDLTGLKPGTEYRVLIGGVKGGHGSLPLSAIFTT", "CLASSIFICATION": "Not met"}

Reported Cyno T-cell Binding 2 uM (MFI) reaches at least 30000 MFI for P283DR9P1364_H9 (designed binder, FN3 domain) LPAPKNLVVSRVTEDSARLSWTAPDAAFDSFSISYIEYPEIPGGEAIVLTVPGSERSYDLTGLKPGTEYWVPIWGVKGGIQSWPLSAIFTT ?
Met

Reported Cyno T-cell Binding 2 uM (MFI) reaches at least 30000 MFI for P283ER9P1365_C1 (designed binder, FN3 domain) LPAPKNLVVSRVTEDSARLSWTAPDAAFDSFYIPYWESEVYGEAIALPVTGSERSYDLTGLKPGTEYQVSIIGVKGGVYSQPLAAIFTT ?
Not met

Reported Cyno T-cell Binding 2 uM (MFI) reaches at least 30000 MFI for P283FR9P1366_C3 (designed binder, FN3 domain) LPAPKNLVVSRVTEDSARLSWTAPDAAFDSFKIAYPEWPDGGEAIVLTVPGSERSYDLTGLKPGTEYFVIIYGVKGGILSPPLSAIFTT ?
Not met

Reported Cyno T-cell Binding 2 uM (MFI) reaches at least 30000 MFI for P283ER9P1365_E2 (designed binder, FN3 domain) LPAPKNLVVSRVTEDSARLSWTAPDAAFDSFYIPYRESEFRGEAIALPVPGSERSYDLTGLKPGTKYRVIIIGVKGGEFSQPLAAIFTT ?
Not met

Reported Cyno T-cell Binding 2 uM (MFI) reaches at least 30000 MFI for P283FR9P1366_H3 (designed binder, FN3 domain) LPAPKNLVVSRVTEDSARLSWTAPDAAFDSFAIAYPEWPIKGEAIVLTVPGSERSYDLTGLKPGTEYWVVIYGVKGGVFSEPLSAIFTT ?
Met

Reported Cyno T-cell Binding 2 uM (MFI) reaches at least 30000 MFI for P283FR9P1366_A5 (designed binder, FN3 domain) LPAPKNLVVSRVTEDSARLSWTAPDAAFDSFWIAYPEWPTRGEAIVLTVPGSERSYDLTGLKPGTEYFVVIYGVKGGSPSPPLSAIFTT ?
Met
